Catalogue of glycan array binding signal (z-score) readings, one per entry.
# testedOn: Neu5Ac(a2-3)Gal(b1-4)GlcNAc(b1-6)[Neu5Ac(a2-3)Gal(b1-3)]GalNAc
# test: glycan array binding signal (z-score within array); higher = stronger binding
# measurementSetup: glycan notation: IUPAC condensed, linker removed
Shown is part of a subset that was picked to be rich in the strongest signals.
propertyLabel: glycan array binding signal (z-score)

binder	testResult
LysMD3 (Homo sapiens), Q7Z3D4 (protein) MAGRHQNRSFPLPGVQSSGQVHAFGNCSDSDILEEDAEVYELRSRGKEKVRRSTSRDRLDDIIVLTKDIQEGDTLNAIALQYCCTVADIKRVNNLISDQDFFALRSIKIPVKKFSSLTETLCPPKGRQTSRHSSVQYSSEQQEILPANDSLAYSDSAGSFLKEVDRDIEQIVKCTDNKRENLNEVVSALTAQQMRFEPDNKNTQRKDPYYGADWGIG	-0.226
EPL1 (Trichoderma atroviride), A0PCX2 (protein) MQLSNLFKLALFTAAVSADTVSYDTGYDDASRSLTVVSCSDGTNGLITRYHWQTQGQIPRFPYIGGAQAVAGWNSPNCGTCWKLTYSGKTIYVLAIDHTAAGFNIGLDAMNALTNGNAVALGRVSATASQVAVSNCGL	-0.379
LICBM33A (Lactococcus lactis), Q9CE94 (protein) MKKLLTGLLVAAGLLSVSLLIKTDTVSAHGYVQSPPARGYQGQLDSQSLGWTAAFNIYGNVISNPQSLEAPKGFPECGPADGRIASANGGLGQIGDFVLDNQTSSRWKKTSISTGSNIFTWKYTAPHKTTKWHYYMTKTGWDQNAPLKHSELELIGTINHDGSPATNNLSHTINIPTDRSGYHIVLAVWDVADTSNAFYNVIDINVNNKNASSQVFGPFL	-0.471
